# TARGET_UNDER_TEST: full-length beta-Catenin (Uniprot ID P35222) (Homo sapiens (Human)) (UniProt P35222)
# Sequence (P35222 2-781 limits assumed): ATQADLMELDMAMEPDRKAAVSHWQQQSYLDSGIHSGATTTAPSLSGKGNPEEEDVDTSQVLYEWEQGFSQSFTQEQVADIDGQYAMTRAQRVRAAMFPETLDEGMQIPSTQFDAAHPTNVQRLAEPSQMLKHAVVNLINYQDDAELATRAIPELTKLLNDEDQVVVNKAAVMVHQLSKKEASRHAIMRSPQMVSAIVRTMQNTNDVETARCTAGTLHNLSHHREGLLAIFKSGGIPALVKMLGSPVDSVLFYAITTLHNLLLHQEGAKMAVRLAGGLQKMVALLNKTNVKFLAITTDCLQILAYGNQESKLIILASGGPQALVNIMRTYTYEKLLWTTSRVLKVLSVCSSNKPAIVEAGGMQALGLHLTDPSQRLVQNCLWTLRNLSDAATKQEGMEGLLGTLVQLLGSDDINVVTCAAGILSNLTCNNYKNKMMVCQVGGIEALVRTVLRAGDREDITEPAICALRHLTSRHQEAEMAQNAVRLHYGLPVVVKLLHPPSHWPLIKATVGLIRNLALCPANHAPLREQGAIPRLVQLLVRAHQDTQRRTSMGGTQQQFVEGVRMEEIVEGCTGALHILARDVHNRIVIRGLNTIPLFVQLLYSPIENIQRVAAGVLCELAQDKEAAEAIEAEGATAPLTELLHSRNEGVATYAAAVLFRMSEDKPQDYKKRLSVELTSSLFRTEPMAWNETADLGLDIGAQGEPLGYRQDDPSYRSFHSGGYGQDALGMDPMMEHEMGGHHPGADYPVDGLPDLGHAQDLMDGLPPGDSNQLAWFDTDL
# ASSAY_OVERVIEW: FP competition vs 5FAM-TCF4(10-53), full-length beta-catenin
Starred links: 1 amine or outer side, 2 acyl side, 3 side chain; linkers in the order of their positions; H or OH if unused. Positions of bridges follow the written chain, without caps; N, C: chain ends. Non-standard residues stand in square brackets, D forms with d. Primed or numbered codes have the meaning given here. PyrS2″ = (S)-3-amino-1-((pent-4-en-1-yloxy)carbonyl)pyrrolidine-3-carboxylic acid (stapling residue), C=CCCCOC(=O)N1CC[C@@](N[*:1])(C(=O)[*:2])C1; PyrS2 = (S)-3-amino-1-((pent-4-en-1-yloxy)carbonyl)pyrrolidine-3-carboxylic acid, C=CCCCOC(=O)N1CC[C@@](N[*:1])(C(=O)[*:2])C1; B5(12) = 2-amino-2-(pent-4-en-1-yl)hept-6-enoic acid (two olefin side chains), C=CCCCC(CCCC=C)(N[*:1])C(=O)[*:2]; B5(3) = 2,2-bis(4-pentenyl)glycine (stitching residue), C=CCCCC(CCCC=C)(N[*:1])C(=O)[*:2]; Bta = N[C@@H](Cc1csc2ccccc12)C(=O)O; αAllylPro = C=CC[C@@]1(C(=O)O)CCCN1; tBuAla = CC(C)(C)C[C@H](N)C(=O)O; 3Thi = N[C@@H](Cc1ccsc1)C(=O)O
Quick reference for IC50 among some binders
Only the number, expressed in nM, is required.

See these solved cases before continuing.
# BINDER, UNIT_INFO, RECORDED_MEASUREMENT
data = [
    ("Ac-[αAllylPro]D[tBuAla][B5(12)]DNAAFN[PyrS2][3Thi][Bta]-NH2 (staple 1-4, 4-11) [I-857]", "nM", 15),
    ("Ac-[αAllylPro]D[tBuAla][B5(3)]DHAAFN[PyrS2″][3Thi][Bta]Q-NH2 (staple 1-4, 4-11) [I-864]", "nM", 12),
]

Now consider a different binder.
# input Give the measured IC50 of Ac-[αAllylPro]D[tBuAla][B5(12)]DHAAFN[PyrS2][3Thi][Bta]-NH2 (staple 1-4, 4-11) [I-863] .
# output 22
